- target-or-system: the molecule itself
- assay-notes: sedimentation equilibrium AUC, monomer-dimer fit, pH 7, 5 C (homodimerisation)
Where no end group is shown, it is not given here. The star is where a group is joined. Cam = NC(=O)C*
measured-property: Kd (µM)
Please give a number only; it is taken to be in µM.

Exercise: For the protein C(Cam)GGEIRALKYEIARLKQAKQAEIRALKQEIAALKGGC(Cam) (Anagram mutant of CSP-3 with all g:e pairs Glu:Lys; also called design iteration 4, reduced & alkylated; CSP-5a (Maya's nomenclature)) [CSP-4r (reduced and alkylated)] , what Kd is on record?
Solution: 77

Exercise: Which Kd is listed for C(Cam)GGEIRALKYEIARLKQAAQAKIRALEQKIAALEGGC(Cam) (CSP-3 with the Lys at the h position replaced by Ala; also called design iteration 6, reduced & alkylated; CSP-7a (Maya's nomenclature)) [CSP-6r (reduced and alkylated)] ?
Solution: 34

Exercise: Sample C(Cam)GGEIRALKYEIARLKQAKQAKIRALEQKIAALEGGC(Cam) (The entry is the monomer chain; the KD is for its monomer-dimer equilibrium; also called CSP-3a; design iteration 3, reduced & alkylated) [CSP-3r (reduced and alkylated)] — what was its Kd?
Solution: 191

Exercise: Which Kd value is on record for C(Cam)GGEIRALKYEIARLKQKKRALEQKIAALEGGC(Cam) (Synthetic designed peptide; The entry is the monomer chain; the KD is for its monomer-dimer equilibrium (parallel coiled-coil homodimer); also called design iteration 1, reduced & alkylated; CSP-2a (Maya's nomenclature)) [CSP-1r (Coiled-coil-Switch Peptide-1, reduced and alkylated)] ?
Solution: 33

Exercise: Any idea what its Kd is? The protein is C(Cam)GGEIRALKYEIARLKQAAQAKKRALEQKIAALEGGC(Cam) (CSP-6 with the Ile at the a site after the hendecad unit replaced by Lys; also called design iteration 7, reduced & alkylated; CSP-8a (Maya's nomenclature)) [CSP-7r (reduced and alkylated)]
Solution: 506

Exercise: // Kd lookup, key: C(Cam)GGKIRALEYKIARLEQAKQAKIRALEQKIAALEGGC(Cam) (Anagram mutant of CSP-3 with all g:e pairs Lys:Glu; also called design iteration 5, reduced & alkylated; CSP-6a (Maya's nomenclature)) [CSP-5r (reduced and alkylated)]
Solution: 72
